Parameter: Trimeric HA Binding: RLU. Scope: all listed entries.
- subject of test: recombinant soluble homotrimeric HA of A/South Carolina/1/18 (H1N1) (Influenza A virus A/South Carolina/1/18 (H1N1))
- protocol details: trimeric HA microarray, transfection supernatant set 2
- condition notes: remark: other sources report otherwise
In your response, put the unit directly after the numeric value.

Example binders with recorded Trimeric HA Binding: RLU:
{"columns": ["binder", "observed"],
 "data": [
  ["TCN-527 (5086_C06) (antibody, V domains shown) VH: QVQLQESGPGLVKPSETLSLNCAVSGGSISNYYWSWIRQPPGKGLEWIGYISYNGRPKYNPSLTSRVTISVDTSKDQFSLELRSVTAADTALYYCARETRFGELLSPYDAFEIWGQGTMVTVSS VL: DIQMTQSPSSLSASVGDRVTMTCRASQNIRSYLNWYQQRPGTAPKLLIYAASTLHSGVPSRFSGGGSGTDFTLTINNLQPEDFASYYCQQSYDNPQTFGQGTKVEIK", "48100 RLU"],
  ["TCN-523 (5248_A17) (antibody, V domains shown) VH: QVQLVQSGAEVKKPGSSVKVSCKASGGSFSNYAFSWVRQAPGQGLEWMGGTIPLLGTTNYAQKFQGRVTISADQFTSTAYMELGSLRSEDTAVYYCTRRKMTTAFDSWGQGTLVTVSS VL: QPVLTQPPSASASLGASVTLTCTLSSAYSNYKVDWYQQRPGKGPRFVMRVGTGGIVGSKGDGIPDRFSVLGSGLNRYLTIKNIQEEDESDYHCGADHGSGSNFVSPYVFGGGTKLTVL", "25500 RLU"],
  ["TCN-504 (3251_K17) (antibody, V domains shown) VH: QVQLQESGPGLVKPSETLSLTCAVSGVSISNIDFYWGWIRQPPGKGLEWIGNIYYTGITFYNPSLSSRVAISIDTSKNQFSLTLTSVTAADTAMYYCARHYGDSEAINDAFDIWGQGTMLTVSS VL: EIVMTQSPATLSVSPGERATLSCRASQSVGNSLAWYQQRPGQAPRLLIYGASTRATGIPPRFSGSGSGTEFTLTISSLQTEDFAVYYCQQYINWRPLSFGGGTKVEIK", "24700 RLU"],
  ["TCN-563 (5237_B21) (antibody, V domains shown) VH: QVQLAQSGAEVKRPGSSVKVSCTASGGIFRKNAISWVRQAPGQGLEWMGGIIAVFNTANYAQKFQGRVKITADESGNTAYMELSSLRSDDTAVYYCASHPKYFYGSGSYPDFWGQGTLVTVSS VL: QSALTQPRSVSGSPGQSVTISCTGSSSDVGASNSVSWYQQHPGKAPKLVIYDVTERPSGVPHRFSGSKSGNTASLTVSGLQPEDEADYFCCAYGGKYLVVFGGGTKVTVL", "17800 RLU"],
  ["TCN-528 (5087_P17) (antibody, V domains shown) VH: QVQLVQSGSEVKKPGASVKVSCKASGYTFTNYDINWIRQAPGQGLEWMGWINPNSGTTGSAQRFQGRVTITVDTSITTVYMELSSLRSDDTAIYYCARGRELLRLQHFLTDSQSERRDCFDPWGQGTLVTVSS VL: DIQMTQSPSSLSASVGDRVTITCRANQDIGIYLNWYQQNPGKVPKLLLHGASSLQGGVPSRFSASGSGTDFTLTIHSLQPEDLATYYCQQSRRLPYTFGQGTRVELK", "25200 RLU"]
]}

Request: Which measured Trimeric HA Binding: RLU value corresponds to TCN-522 (3212_I12) (antibody, V domains shown) VH: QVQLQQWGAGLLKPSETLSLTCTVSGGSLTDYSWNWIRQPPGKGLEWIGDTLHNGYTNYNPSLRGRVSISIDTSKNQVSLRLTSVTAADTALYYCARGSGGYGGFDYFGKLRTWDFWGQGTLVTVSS VL: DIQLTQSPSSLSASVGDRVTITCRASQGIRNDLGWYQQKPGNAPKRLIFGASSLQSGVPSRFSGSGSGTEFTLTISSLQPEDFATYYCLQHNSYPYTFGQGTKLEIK ?
Result: 39600 RLU
